# Test system: SNU601
# Test Description: Cell viability drug screen, 12-point dose-response AUC
# Type: cell-based, human
# Test Parameters: SNU601 cells; 72 hours
# Procedure: An FDA-approved small-molecule pharmacological compound (#L1300) and an anticancer compound for research (#L2000) were purchased from Selecckchem and a 10 mM solution was prepared in DMSO. […] Cells cultured for cell-based drug assay were inoculated into a 96-well white optical plate (Corning) at 5×10^3 cells per well. […] The final drug concentration in the 5 ns range and the DMSO specification control (0.5%) were calculated. […]
Counter-ions that a name gives are not always drawn.
Average Area Under the Viability Curve (AUC), AUC norm value values, listed per item
Reported Metric: Average Area Under the Viability Curve (AUC), AUC norm value

* CC[C@@]1(O)C(=O)OCc2c1cc1n(c2=O)Cc2cc3c(CN(C)C)c(O)ccc3nc2-1 [Topotecan HCI, Topotecan HCl] | −0.5589
* CCCCC(CC)CNC(=N)NC(=N)NCCCCCCNC(=N)NC(=N)NCC(CC)CCCC (centres unmarked) [Alexidine HCl] | 1.898
* CC(C)n1nc(-c2ccc3oc(N)nc3c2)c2c(N)ncnc21 | 1.346
* COC(=O)Nc1nc2ccc(C(=O)c3cccs3)cc2[nH]1 | 1.743
* COc1cc(N2CCC(N3CCN(C)CC3)CC2)ccc1Nc1ncc(Cl)c(Nc2ccccc2S(=O)(=O)C(C)C)n1 | 1.062

----------
In this section, each of the molecules is paired with its reported Average Area Under the Viability Curve (AUC), AUC norm value.
# Tested on: SNU668
# Test Description: Cell viability drug screen, 12-point dose-response AUC
# Type: cell-based, human
# Test Parameters: SNU668 cells (SEM subtype); 72 hours
Reported Metric: Average Area Under the Viability Curve (AUC), AUC norm value

- CN(C)Cc1c(C(=O)NCCOc2ccc(C(=O)NO)cc2)oc2ccccc12: 0.53
- O=C(Nc1ccc([N+](=O)[O-])cc1Cl)c1cc(Cl)ccc1O [Niclosamide (Niclocide), Niclosamide]: −0.9084
- CO[C@H]1C(=O)[C@]2(C)[C@@H](OC)C[C@H]3OC[C@@]3(OC(C)=O)[C@H]2[C@H](OC(=O)c2ccccc2)[C@]2(O)C[C@H](OC(=O)[C@H](O)[C@@H](NC(=O)OC(C)(C)C)c3ccccc3)C(C)=C1C2(C)C: 0.4109

----------
# Test system: MKN74
# Test Description: Cell viability drug screen, 12-point dose-response AUC
# Type: cell-based, human
# Test Parameters: MKN74 cells; 72 hours
# Procedure: An FDA-approved small-molecule pharmacological compound (#L1300) and an anticancer compound for research (#L2000) were purchased from Selecckchem and a 10 mM solution was prepared in DMSO. […] Cells cultured for cell-based drug assay were inoculated into a 96-well white optical plate (Corning) at 5×10^3 cells per well. […] The final drug concentration in the 5 ns range and the DMSO specification control (0.5%) were calculated. […]
Counter-ions that a name gives are not always drawn.
Reported Metric: Average Area Under the Viability Curve (AUC), AUC norm value

* O=C(/C=C/c1cccc(S(=O)(=O)Nc2ccccc2)c1)NO [Belinostat (PXD101), Belinostat] | −0.1835
* Cc1ccc(C(=O)N(CCCN)[C@@H](c2nc3cc(Cl)ccc3c(=O)n2Cc2ccccc2)C(C)C)cc1 [Ispinesib (SB-715992), Ispinesib] | 0
* CC[C@]1(O)C[C@H]2CN(CCc3c([nH]c4ccccc34)[C@@](C(=O)OC)(c3cc4c(cc3OC)N(C=O)[C@H]3[C@@](O)(C(=O)OC)[C@H](OC(C)=O)[C@]5(CC)C=CCN6CC[C@]43[C@@H]65)C2)C1 [Vincristine] | 0.209
* CC[C@@]1(O)C(=O)OCc2c1cc1n(c2=O)Cc2cc3ccccc3nc2-1 [Camptothecin] | −0.08807
* CCCCC(CC)CNC(=N)NC(=N)NCCCCCCNC(=N)NC(=N)NCC(CC)CCCC (stereo not shown) [Alexidine HCl] | −0.3433
* CC[C@@H]1C(=O)N(C)c2cnc(Nc3ccc(C(=O)N[C@H]4CC[C@H](N5CCN(CC6CC6)CC5)CC4)cc3OC)nc2N1C(C)C [BI6727 (Volasertib), Volasertib] | −0.01134
* O=C(Nc1ccc([N+](=O)[O-])cc1Cl)c1cc(Cl)ccc1O [Niclosamide (Niclocide), Niclosamide] | −1.62
* CC[C@@]1(O)C(=O)OCc2c1cc1n(c2=O)Cc2cc3c(CN(C)C)c(O)ccc3nc2-1 [Topotecan HCI, Topotecan HCl] | 0
* COc1cc([C@@H]2c3cc4c(cc3[C@@H](O[C@@H]3O[C@@H]5CO[C@@H](c6cccs6)O[C@H]5[C@H](O)[C@H]3O)[C@H]3COC(=O)[C@H]23)OCO4)cc(OC)c1O [Teniposide (Vumon), Teniposide] | 0.3993
* CC(C)C[C@H](NC(=O)CNC(=O)c1cc(Cl)ccc1Cl)B1OC(=O)C(CC(=O)O)(CC(=O)O)O1 [MLN9708] | −0.4008
* O=C(Nc1c[nH]nc1-c1nc2ccc(CN3CCOCC3)cc2[nH]1)NC1CC1 [AT9283] | 0.4728
* CC(C)[C@H](C(=O)Nc1ccc(C(=O)NO)cc1)c1ccccc1 [AR-42 (HDAC-42), AR-42] | 0.1789
* O=C(/C=C/c1cccnc1)NCCCCC1CCN(C(=O)c2ccccc2)CC1 [APO866 (FK866), APO866] | −6.53

----------
# Test system: SNU620
# Test Description: Cell viability drug screen, 12-point dose-response AUC
# Type: cell-based, human
# Test Parameters: SNU620 cells; 72 hours; 12-point dose-response
# Experimental: An FDA-approved small-molecule pharmacological compound (#L1300) and an anticancer compound for research (#L2000) were purchased from Selecckchem and a 10 mM solution was prepared in DMSO. […] Cells cultured for cell-based drug assay were inoculated into a 96-well white optical plate (Corning) at 5×10^3 cells per well. […] The final drug concentration in the 5 ns range and the DMSO specification control (0.5%) were calculated. […]
Reported Metric: area under the viability curve (AUC), normalized

• CC(/C=C/C(=O)NO)=C\[C@@H](C)C(=O)c1ccc(N(C)C)cc1 = −1.343
• CN(C)c1ccc(C(=C2C=CC(=[N+](C)C)C=C2)c2ccc(N(C)C)cc2)cc1 = −0.7672
• Cc1cnc(NC(=O)Nc2cc(Br)c(C)cc2OC[C@@H]2CNCCO2)cn1 = 0
• Nc1ccc(-c2ccc3ncc4ccc(=O)n(-c5cccc(C(F)(F)F)c5)c4c3c2)cn1 = 0.3965
• CC(C)C[C@H](NC(=O)CNC(=O)c1cc(Cl)ccc1Cl)B(O)O = −0.9643
• COC(=O)Nc1nc2ccc(Sc3ccccc3)cc2[nH]1 = −1.425

----------
# Tested on: SNU719
# Test Description: Cell viability drug screen, 12-point dose-response AUC
# Assay type: cell-based, human
# Test Parameters: SNU719 cells; 72 hours; 12-point dose-response
Structures can show the parent of a compound that is named as a salt.
Label true (1) when area under the viability curve (AUC), normalized is strictly below 4; otherwise label false (0).

- COC(=O)Nc1nc2ccc(Sc3ccccc3)cc2[nH]1: true (1)
- CN(C)c1ccc(C(=C2C=CC(=[N+](C)C)C=C2)c2ccc(N(C)C)cc2)cc1: true (1)
- COc1ncc(-c2ccc3nccc(-c4ccnnc4)c3c2)cc1NS(=O)(=O)c1ccc(F)cc1F: false (0)
- C/C(=C\c1csc(C)n1)[C@@H]1C[C@@H]2O[C@@H]2CCC[C@H](C)[C@H](O)[C@@H](C)C(=O)C(C)(C)[C@@H](O)CC(=O)O1: false (0)
- O=C1c2c(O)ccc(O)c2C(=O)c2c(NCCNCCO)ccc(NCCNCCO)c21 [Mitoxantrone Hydrochloride]: true (1)
- CCCOc1ccc2nc(NC(=O)OC)[nH]c2c1: true (1)
- Nc1ccc(-c2ccc3ncc4ccc(=O)n(-c5cccc(C(F)(F)F)c5)c4c3c2)cn1: true (1)
- CC(C)[C@]12O[C@H]1[C@@H]1O[C@]13[C@]1(O[C@H]1C[C@H]1C4=C(CC[C@@]13C)C(=O)OC4)[C@@H]2O [Triptolide]: false (0)

----------
Listing of entries alongside the reported Average Area Under the Viability Curve (AUC), AUC norm value.
# System: SNU601
# Test Description: Cell viability drug screen, 12-point dose-response AUC
# Assay type: cell-based, human
# Test Parameters: SNU601 cells; 72 hours
Reported Metric: Average Area Under the Viability Curve (AUC), AUC norm value

* COc1cccc2c1C(=O)c1c(O)c3c(c(O)c1C2=O)C[C@@](O)(C(=O)CO)C[C@@H]3O[C@H]1C[C@H](N)[C@H](O)[C@H](C)O1 | 4.481
* Cc1ccc([N+](=O)[O-])cc1S(=O)(=O)N(C)/N=C/c1cnc2ccc(Br)cn12 | 1.999
* OC1(c2ccc(Cl)c(C(F)(F)F)c2)CCN(CCCC(c2ccc(F)cc2)c2ccc(F)cc2)CC1 | 0.6748
* NC(=O)Nc1cc(-c2cccc(F)c2)sc1C(=O)N[C@H]1CCCNC1 | −0.957

The reported numbers originate from patent US20250129430A1.
